Assayed System: human sst2 receptor (Homo sapiens, UniProt P30874)
Sequence (P30874 whole entry): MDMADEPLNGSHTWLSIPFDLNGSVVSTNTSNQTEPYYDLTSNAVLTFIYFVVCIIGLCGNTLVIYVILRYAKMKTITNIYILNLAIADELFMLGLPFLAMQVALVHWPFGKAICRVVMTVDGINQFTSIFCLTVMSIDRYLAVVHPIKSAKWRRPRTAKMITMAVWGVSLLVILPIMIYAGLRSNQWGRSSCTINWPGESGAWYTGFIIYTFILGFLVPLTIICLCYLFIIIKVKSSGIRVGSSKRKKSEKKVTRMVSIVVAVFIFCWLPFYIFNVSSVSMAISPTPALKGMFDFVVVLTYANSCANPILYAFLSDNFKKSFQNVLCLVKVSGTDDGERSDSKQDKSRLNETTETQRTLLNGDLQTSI
Experiment: cAMP functional assay in CHO-K1 cells stably expressing human sst2 receptor
Format: cell-based
Test Settings: human sst2, CHO-K1 cells, cAMP; average of two or more independent measurements
Listed here: items and their measured sst2 pEC50±SEM.
Answer with a bare number; do not write a unit.

Problem: If you can, please state the reported sst2 pEC50±SEM value of Cc1cc(F)cc(N2C=Nc3cc(C)c(-c4cccc(O)c4)cc3C2C(=O)N(C)C[C@@H]2CCCN2)c1 (stereo partly drawn) [Compound 11] .
Solution: 9.0

More entries:
Problem: If you can, please state the reported sst2 pEC50±SEM value of CC[C@H](N)CN(C)C(=O)C1c2cc(-c3cccc(O)c3)c(Cl)cc2N=CN1c1cc(C)cc(C)c1 (stereo partly drawn) [Compound 7] .
Solution: 8.0

Problem: If you can, please state the reported sst2 pEC50±SEM value of Cc1cc(Cl)cc(N2C=Nc3cc(C)c(-c4cc(O)cc(C#N)c4)cc3C2C(=O)N(C)C[C@@H]2CCCN2)c1 (stereo partly drawn) [Compound 30] .
Solution: 9.4

Problem: If you can, please state the reported sst2 pEC50±SEM value of Cc1cc(Cl)cc(N2C=Nc3cc(C)c(-c4cc(F)cc(F)c4)cc3C2C(=O)N(C)C[C@@H]2CCCN2)c1 (stereo partly drawn) [Compound 19] .
Solution: 8.4
